# target_or_test_system: UGT1A4 (Homo sapiens, UniProt P22310)
# Construct: The reaction mixture containing 0.25 mg/mL protein of HLM; tissue Corning Life Sciences 452156; host or cells: pooled human liver microsomes, 50 donors
# Sequence (P22310 29-534): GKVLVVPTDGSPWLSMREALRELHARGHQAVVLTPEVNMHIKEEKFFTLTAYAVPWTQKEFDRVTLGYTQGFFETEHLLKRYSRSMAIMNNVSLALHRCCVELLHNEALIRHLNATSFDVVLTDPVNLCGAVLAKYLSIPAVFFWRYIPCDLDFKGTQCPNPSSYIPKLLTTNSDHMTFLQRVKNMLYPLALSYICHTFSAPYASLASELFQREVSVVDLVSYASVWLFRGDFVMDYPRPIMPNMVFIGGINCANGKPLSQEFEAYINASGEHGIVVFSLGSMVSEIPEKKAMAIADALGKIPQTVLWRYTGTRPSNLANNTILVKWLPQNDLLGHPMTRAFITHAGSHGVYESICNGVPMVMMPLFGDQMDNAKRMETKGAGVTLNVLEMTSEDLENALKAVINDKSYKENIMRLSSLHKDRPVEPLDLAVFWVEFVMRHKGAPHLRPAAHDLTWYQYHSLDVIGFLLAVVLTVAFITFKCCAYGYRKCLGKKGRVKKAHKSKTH
# assay_name: Inhibition of UGT1A4 (trifluoperazine glucuronidation) in human liver microsomes
# Type: in vitro ADME
quantity_name: IC50 (µM)
Express the result in µM but write the number alone.

Inquiry: Read off the recorded IC50 for C[C@@H]1CC[C@@]2(OC1)O[C@H]1C[C@H]3[C@@H]4CC[C@H]5C[C@@H](O)CC[C@]5(C)[C@H]4CC(=O)[C@]3(C)[C@H]1[C@@H]2C
Reply text: 3.99

---

# target_or_test_system: UGT1A3 (Homo sapiens, UniProt P35503)
# Sequence (P35503 29-534): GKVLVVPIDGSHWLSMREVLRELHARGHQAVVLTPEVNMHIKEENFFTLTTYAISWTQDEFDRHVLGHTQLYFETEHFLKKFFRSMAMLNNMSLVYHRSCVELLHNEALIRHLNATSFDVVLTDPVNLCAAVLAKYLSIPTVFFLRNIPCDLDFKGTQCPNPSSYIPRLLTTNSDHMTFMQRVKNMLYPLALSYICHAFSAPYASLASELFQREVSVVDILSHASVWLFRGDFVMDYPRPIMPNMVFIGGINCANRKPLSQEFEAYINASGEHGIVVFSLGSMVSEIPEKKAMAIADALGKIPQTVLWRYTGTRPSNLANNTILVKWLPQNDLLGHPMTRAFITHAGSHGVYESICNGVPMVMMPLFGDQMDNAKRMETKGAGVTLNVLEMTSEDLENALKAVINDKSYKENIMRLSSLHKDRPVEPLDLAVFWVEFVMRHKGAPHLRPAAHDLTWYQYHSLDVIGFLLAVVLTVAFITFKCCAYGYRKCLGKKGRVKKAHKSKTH
quantity_name: pIC50
Give only the number. pIC50 is defined as minus log10 of concentration in molar units.

Inquiry: Please respond with reported pIC50 (system UGT1A3 (Homo sapiens, UniProt P35503)) for C[C@@H]1[C@H]2c3cc4c(cc3O[C@@]35OCOC3=CC(=O)[C@H](C[C@H]1C)[C@@H]25)OCO4 [Sauchinone] .
Reply text: 4.36

---

# target_or_test_system: Ugt1a9 (Mus musculus, UniProt Q62452)
# Construct: from tissue; host or cells: mouse liver microsomes prepared in house
# Sequence (Q62452 24-528): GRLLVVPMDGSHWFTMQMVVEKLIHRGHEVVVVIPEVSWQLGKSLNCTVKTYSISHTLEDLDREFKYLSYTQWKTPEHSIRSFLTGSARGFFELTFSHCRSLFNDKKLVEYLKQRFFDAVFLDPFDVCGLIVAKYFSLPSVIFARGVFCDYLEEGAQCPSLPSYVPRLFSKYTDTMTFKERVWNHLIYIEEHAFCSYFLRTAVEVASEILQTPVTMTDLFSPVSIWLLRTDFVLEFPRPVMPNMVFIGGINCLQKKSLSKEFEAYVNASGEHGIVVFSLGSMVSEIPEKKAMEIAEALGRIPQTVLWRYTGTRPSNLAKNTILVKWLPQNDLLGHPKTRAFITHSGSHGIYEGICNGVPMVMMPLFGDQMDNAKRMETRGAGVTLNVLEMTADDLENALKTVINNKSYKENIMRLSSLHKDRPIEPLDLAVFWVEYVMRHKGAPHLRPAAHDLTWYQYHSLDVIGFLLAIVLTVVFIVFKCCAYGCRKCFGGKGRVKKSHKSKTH
# assay_name: Inhibition of Ugt1a9 (propofol) in mice liver microsomes
# Format: in vitro ADME
# assay_context: pH 7.6, probe propofol (100 μM, in UGT substrate cocktail), read-out: IC50 of Ugt1a9-catalyzed propofol
quantity_name: IC50 (µM)
Express the result in µM but write the number alone.

Inquiry: Please respond with reported IC50 (system Ugt1a9 (Mus musculus, UniProt Q62452)) for C[C@@H]1[C@H]2c3cc4c(cc3O[C@@]35OCOC3=CC(=O)[C@H](C[C@H]1C)[C@@H]25)OCO4 .
Reply text: 29.8

---

# assay_name: Pharmacokinetic study of zidovudine with or without sauchinone in mice
# assay_context: mouse, plasma, iv, 15 mg/kg, AUC480 min, mice; zidovudine 15 mg/kg iv with vehicle; mean ± SD, n = 11
quantity_name: AUC(0-t)

Inquiry: Read off the recorded AUC(0-t) for Cc1cn([C@H]2C[C@H](N=[N+]=[N-])[C@@H](CO)O2)c(=O)[nH]c1=O [zidovudine]
Reply text: 3780 ng·h/mL

---

# target_or_test_system: UGT1A4 (Homo sapiens)
# Construct: The reaction mixture containing 0.25 mg/mL protein of HLM; tissue Corning Life Sciences 452156; host or cells: pooled human liver microsomes, 50 donors
# assay_name: Inhibition of UGT1A4 (trifluoperazine glucuronidation) in human liver microsomes
# Type: in vitro ADME
# assay_context: human liver microsomes; substrate 40 μM trifluoperazine; mean (minimum–maximum); read-out: IC50 for inhibition of UGT1A4
pIC50: −log10 of the molar value.
quantity_name: pIC50

Inquiry: Read off the recorded pIC50 for C[C@@H]1[C@H]2c3cc4c(cc3O[C@@]35OCOC3=CC(=O)[C@H](C[C@H]1C)[C@@H]25)OCO4 [Sauchinone]
Reply text: < 3.70

---

Target chain: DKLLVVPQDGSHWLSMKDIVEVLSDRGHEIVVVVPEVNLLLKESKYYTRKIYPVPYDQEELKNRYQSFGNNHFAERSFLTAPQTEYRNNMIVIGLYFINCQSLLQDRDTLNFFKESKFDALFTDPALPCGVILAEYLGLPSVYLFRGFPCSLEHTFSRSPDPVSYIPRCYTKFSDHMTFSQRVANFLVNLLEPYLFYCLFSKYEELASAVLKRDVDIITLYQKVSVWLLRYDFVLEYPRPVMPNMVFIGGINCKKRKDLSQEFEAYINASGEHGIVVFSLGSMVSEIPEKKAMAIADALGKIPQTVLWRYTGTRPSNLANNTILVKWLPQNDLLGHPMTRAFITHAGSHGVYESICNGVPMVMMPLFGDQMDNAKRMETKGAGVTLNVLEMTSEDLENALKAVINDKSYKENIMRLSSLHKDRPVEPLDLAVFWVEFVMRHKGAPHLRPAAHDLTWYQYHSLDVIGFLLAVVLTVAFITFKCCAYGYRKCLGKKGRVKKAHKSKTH
quantity_name: IC50 (µM)
Express the result in µM but write the number alone.

Inquiry: Read off the recorded IC50 for Oc1cccc2ccccc12
Reply text: 35.2
